target entity: T1, SCRM ACTL_(L484F) (405-494) (Arabidopsis thaliana, UniProt Q9LSE2 405-494, L484F)
T1 construct: SCREAM (SCRM, ICE1), Arabidopsis thaliana, At3G26744, ACT-like domain, residues 405-494, L484F (printed L485F in the methods); results, legends and the ITC methods print L484F; the cloning, CD and modelling methods print L485F; also called SCRM-ACTL_(L485F); SCRM L484F ACTL; source: E. coli BL21, purified (glutathione resin, thrombin, Superdex-200); not shown: GST, N-terminal, cleaved
T1 sequence (looked up): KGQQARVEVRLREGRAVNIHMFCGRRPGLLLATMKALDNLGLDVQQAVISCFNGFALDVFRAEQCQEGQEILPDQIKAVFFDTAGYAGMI
assay: ITC; Malvern PEAQ-ITC, 25 °C, PBS pH 7.4; 150 μM SCRM ACTL/SCRM L484F ACTL injected into 15 μM SPCH ACTL/MUTE ACTL
condition context: both partners purified
measurement label: Kd (µM)
One number for each entry, in µM.

Exam item: Item SPCH-ACTL (285-364) (domain or fragment, Arabidopsis thaliana, UniProt Q700C7 285-364, looked up, source: E. coli BL21, purified (glutathione resin, thrombin, Superdex-200); not shown: GST, N-terminal, cleaved) LADVEVKFSGANVLLKTVSHKIPGQVMKIIAALEDLALEILQVNINTVDETMLNSFTIKIGIECQLSAEELAQQIQQTFC has what recorded Kd?
Marked response: 1.7
